Reported Ki by item:
- measurement.target: Glutamate receptor ionotropic, kainate 4 (Homo sapiens, UniProt Q16099)
- Sequence (Q16099 whole entry): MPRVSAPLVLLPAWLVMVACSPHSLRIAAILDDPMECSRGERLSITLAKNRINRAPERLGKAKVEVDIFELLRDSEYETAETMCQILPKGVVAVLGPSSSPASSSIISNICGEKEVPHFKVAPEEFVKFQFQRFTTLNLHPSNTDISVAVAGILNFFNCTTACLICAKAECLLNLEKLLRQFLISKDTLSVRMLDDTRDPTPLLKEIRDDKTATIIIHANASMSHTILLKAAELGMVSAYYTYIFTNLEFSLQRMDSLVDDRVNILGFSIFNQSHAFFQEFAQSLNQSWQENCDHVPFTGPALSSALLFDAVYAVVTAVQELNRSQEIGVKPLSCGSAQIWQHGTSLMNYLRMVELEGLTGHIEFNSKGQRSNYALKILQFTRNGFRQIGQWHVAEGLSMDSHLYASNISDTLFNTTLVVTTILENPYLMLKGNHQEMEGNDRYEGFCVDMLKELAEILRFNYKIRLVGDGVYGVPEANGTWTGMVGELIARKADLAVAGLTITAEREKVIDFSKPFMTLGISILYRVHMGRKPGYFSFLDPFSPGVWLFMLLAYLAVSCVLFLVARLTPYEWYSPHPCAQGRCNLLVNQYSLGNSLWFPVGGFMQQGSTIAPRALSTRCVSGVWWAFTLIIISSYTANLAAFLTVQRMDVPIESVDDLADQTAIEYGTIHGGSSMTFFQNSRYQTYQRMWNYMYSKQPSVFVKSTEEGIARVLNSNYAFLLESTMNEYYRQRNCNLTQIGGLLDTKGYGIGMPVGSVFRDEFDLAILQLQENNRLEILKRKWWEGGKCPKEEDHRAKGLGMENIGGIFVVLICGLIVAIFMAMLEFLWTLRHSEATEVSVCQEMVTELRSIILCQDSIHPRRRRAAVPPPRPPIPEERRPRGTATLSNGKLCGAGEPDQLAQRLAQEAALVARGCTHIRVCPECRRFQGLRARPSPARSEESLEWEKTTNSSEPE

compound: CN[C@H](CC(=O)O)C(=O)O
qual: >
Ki [nM]: 10000
--
compound: O=C1N=c2cc([N+](=O)[O-])c([N+](=O)[O-])cc2=NC1=O
qual: =
Ki [nM]: 8490
--
compound: C/C(=C\C=C\[C@@H](C)C(=O)O)[C@H]1CN[C@H](C(=O)O)[C@H]1CC(=O)O
qual: =
Ki [nM]: 10.5
--
compound: N#Cc1cc2nc(O)c(O)nc2cc1[N+](=O)[O-]
qual: >
Ki [nM]: 10000
--
compound: N[C@@H](Cn1oc(=O)[nH]c1=O)C(=O)O
qual: =
Ki [nM]: 6.43
--
compound: NC(CCC(=O)O)C(=O)O (stereo unspecified)
qual: =
Ki [nM]: 18.3

* * *

Reported Ki by item:
- measurement.target: Glutamate receptor ionotropic, kainate 4 (Homo sapiens, UniProt Q16099)

molecule: C=C(C)[C@H]1CN[C@H](C(=O)O)[C@H]1CC(=O)O
units: µM
Ki: 0.00229
--
molecule: Cc1onc(O)c1CC(N)C(=O)O (stereo not drawn)
units: µM
Ki: 1.97
--
molecule: CC(C)[C@H]1CN[C@H](C(=O)O)[C@H]1CC(=O)O [dihydrokainic acid]
units: µM
Ki: 3.84

// provenance: BindingDB's records for doi:10.1046/j.1471-4159.1994.62010001.x
